Biological target: T1, human CTLA-4-Fc (Chimerigen) (human, UniProt P16410 36-161; P01857 99-330 = IgG part, limits assumed)
T1 construct: extracellular domain;domain: Fc portion; Bought protein; also called hCTLA-4-Fc; huCTLA-4-Ig
T1 sequence (P16410 other isoform, or with tags, fused parts or gaps mutant limits assumed): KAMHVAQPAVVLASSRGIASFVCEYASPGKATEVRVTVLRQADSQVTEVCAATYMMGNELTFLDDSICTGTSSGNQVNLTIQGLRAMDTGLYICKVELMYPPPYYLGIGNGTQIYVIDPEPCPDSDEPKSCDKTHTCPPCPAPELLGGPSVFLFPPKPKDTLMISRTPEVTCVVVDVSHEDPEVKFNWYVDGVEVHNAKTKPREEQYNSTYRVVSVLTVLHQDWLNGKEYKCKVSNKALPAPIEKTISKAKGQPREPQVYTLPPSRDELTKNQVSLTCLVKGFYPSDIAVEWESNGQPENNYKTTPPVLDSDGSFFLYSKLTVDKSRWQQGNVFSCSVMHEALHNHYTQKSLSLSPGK
Test: Affinity-ELISA of the PEGylated monomer towards hCTLA-4-Fc
property.label: ELISA-Affinity PEGylated Monomer (nM)
Field format: number, assumed nM, no unit text.

For the binder S140.4-O10_S146C PEGylated with 12k PEG-maleimide (designed binder, 12k PEG-maleimide on Cys 146, also called O10_S146C PEGylated monomer) QDSTSDLIPAPPLSKVPLQQNFQDNQFHGKWYVVGLAGNRILRDDQHPMNMYATIYELKEDKSYNVTSVISSHKKCEYTIATFVPGSQPGEFTLGNIKSYGDKTSYLVRVVSTDYNQYAVVFFKLAEDNAEFFAITIYGRTKELACELKENFIRFSKSLGLPENHIVFPVPIDQCIDG , what ELISA-Affinity PEGylated Monomer is on record? 100

And S140.4-O10_V84C PEGylated with 12k PEG-maleimide (designed binder, 12k PEG-maleimide on Cys 84, also called O10_V84C PEGylated monomer) QDSTSDLIPAPPLSKVPLQQNFQDNQFHGKWYVVGLAGNRILRDDQHPMNMYATIYELKEDKSYNVTSVISSHKKCEYTIATFCPGSQPGEFTLGNIKSYGDKTSYLVRVVSTDYNQYAVVFFKLAEDNAEFFAITIYGRTKELASELKENFIRFSKSLGLPENHIVFPVPIDQCIDG ? 100

Further, for S140.4-O10_T141C PEGylated with 12k PEG-maleimide (designed binder, 12k PEG-maleimide on Cys 141, also called O10_T141C PEGylated monomer) QDSTSDLIPAPPLSKVPLQQNFQDNQFHGKWYVVGLAGNRILRDDQHPMNMYATIYELKEDKSYNVTSVISSHKKCEYTIATFVPGSQPGEFTLGNIKSYGDKTSYLVRVVSTDYNQYAVVFFKLAEDNAEFFAITIYGRCKELASELKENFIRFSKSLGLPENHIVFPVPIDQCIDG ? 82

S140.4-O10 site-directed PEGylated at Cys 87 with 12k PEG (designed binder, chain 1 pos 87: Cys carrying linear 12k PEG-maleimide on its thiol, written C, also called O10_PEG(12k); O10_S87C PEGylated monomer) QDSTSDLIPAPPLSKVPLQQNFQDNQFHGKWYVVGLAGNRILRDDQHPMNMYATIYELKEDKSYNVTSVISSHKKCEYTIATFVPGCQPGEFTLGNIKSYGDKTSYLVRVVSTDYNQYAVVFFKLAEDNAEFFAITIYGRTKELASELKENFIRFSKSLGLPENHIVFPVPIDQCIDGSAWSHPQFEK , same question. 52

Continue with S140.4-O10_A145C PEGylated with 12k PEG-maleimide (designed binder, 12k PEG-maleimide on Cys 145, also called O10_A145C PEGylated monomer) QDSTSDLIPAPPLSKVPLQQNFQDNQFHGKWYVVGLAGNRILRDDQHPMNMYATIYELKEDKSYNVTSVISSHKKCEYTIATFVPGSQPGEFTLGNIKSYGDKTSYLVRVVSTDYNQYAVVFFKLAEDNAEFFAITIYGRTKELCSELKENFIRFSKSLGLPENHIVFPVPIDQCIDG 74

Similarly, S140.4-O10_E143C PEGylated with 12k PEG-maleimide (designed binder, 12k PEG-maleimide on Cys 143, also called O10_E143C PEGylated monomer) QDSTSDLIPAPPLSKVPLQQNFQDNQFHGKWYVVGLAGNRILRDDQHPMNMYATIYELKEDKSYNVTSVISSHKKCEYTIATFVPGSQPGEFTLGNIKSYGDKTSYLVRVVSTDYNQYAVVFFKLAEDNAEFFAITIYGRTKCLASELKENFIRFSKSLGLPENHIVFPVPIDQCIDG ? 103
